Kindly supply the reported total protein half-life in vivo values for the records listed here.
test: total protein half-life in vivo (active degradation + dilution); higher = more stable protein; conditions: E. coli NCM3722 delta-clpP; growth: N-lim chemostat; doubling time 6 h
All answers are understood in h, so give the number only.

Using the record for MFNEVHSIHGHTLLLITKSSLQATALLQHLKQSLAITGKLHNIQRSLDDISSGSIILLDMMEADKKLIHYWQDTLSRKNNNIKILLLNTPEDYPYRDIENWPHINGVFYSMEDQERVVNGLQGVLRGECYFTQKLASYLITHSGNYRYNSTESALLTHREKEILNKLRIGASNNEIARSLFISENTVKTHLYNLFKKIAVKNRTQAVSWANDNLRR , report its total protein half-life in vivo.
1.72

Now the same for MVKLAFPRELRLLTPSQFTFVFQQPQRAGTPQITILGRLNSLGHPRIGLTVAKKNVRRAHERNRIKRLTRESFRLRQHELPAMDFVVVAKKGVADLDNRALSEALEKLWRRHCRLARGS [P0A7Y8]
5.44

Moving on to the next sequence: MKIFLENLYHSDCYFLPIRDNQQVLVGVELITHFSSEDGTVRIPTSRVIAQLTEEQHWQLFSEQLELLKSCQHFFIQHKLFAWLNLTPQVATLLLERDNYAGELLKYPFIELLINENYPHLNEGKDNRGLLSLSQVYPLVLGNLGAGNSTMKAVFDGLFTRVMLDKSFIQQQITHRSFEPFIRAIQAQISPCCNCIIAGGIDTAEILAQITPFDFHALQGCLWPAVPINQITTLVQR
4.11

Here is the next sequence: MTTLAIDIGGTKLAAALIGADGQIRDRRELPTPASQTPEALRDALSALVSPLQAHAQRVAIASTGIIRDGSLLALNPHNLGGLLHFPLVKTLEQLTNLPTIAINDAQAAAWAEFQALDGDITDMVFITVSTGVGGGVVSGCKLLTGPGGLAGHIGHTLADPHGPVCGCGRTGCVEAIASGRGIAAAAQGELAGADAKTIFTRAGQGDEQAQQLIHRSARTLARLIADIKATTDCQCVVVGGSVGLAEGYLALVETYLAQEPAAFHVDLLAAHYRHDAGLLGAALLAQGEKL
4.78

And then MIEFSHVSKLFGAQKAVNDLNLNFQEGSFSVLIGTSGSGKSTTLKMINRLVEHDSGEIRFAGEEIRSLPVLELRRRMGYAIQSIGLFPHWSVAQNIATVPQLQKWSRARIDDRIDELMALLGLESNLRERYPHQLSGGQQQRVGVARALAADPQVLLMDEPFGALDPVTRGALQQEMTRIHRLLGRTIVLVTHDIDEALRLAEHLVLMDHGEVVQQGNPLTMLTRPANDFVRQFFGRSELGVRLLSLRSVADYVRREERADGEALAEEMTLRDALSLFVARGCEVLPVVNMQGQPCGTLHFQDLLVEA , what is it?
5.31

Item: MTDLIQRPRRLRKSPALRAMFEETTLSLNDLVLPIFVEEEIDDYKAVEAMPGVMRIPEKHLAREIERIANAGIRSVMTFGISHHTDETGSDAWREDGLVARMSRICKQTVPEMIVMSDTCFCEYTSHGHCGVLCEHGVDNDATLENLGKQAVVAAAAGADFIAPSAAMDGQVQAIRQALDAAGFKDTAIMSYSTKFASSFYGPFREAAGSALKGDRKSYQMNPMNRREAIRESLLDEAQGADCLMVKPAGAYLDIVRELRERTELPIGAYQVSGEYAMIKFAALAGAIDEEKVVLESLGSIKRAGADLIFSYFALDLAEKKILR [P0ACB2]
5.78
